- TARGET_SYSTEM: T1, human Aβ peptide (1-40) biotinylated at the C terminus (human, UniProt P05067 672-711, biotinylated at the C-terminus)
- T1 construct: domain: β-amyloid peptide (1-40); Numbers 1-40 count on the β-amyloid peptide, not on APP; also called beta-amyloid 1-40 peptide (biotinylated at the C-terminus); streptavidin-captured beta-amyloid (1-40)
- T1 sequence (P05067 672-711 limits assumed): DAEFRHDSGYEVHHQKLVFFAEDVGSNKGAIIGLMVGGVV
- TEST: Aβ binding ELISA with culture supernatant, Aβ peptide (1-40)
ATTRIBUTE_MEASURED: EC50 (µg/mL)
The reply should contain only the number, in µg/mL.

Req: Which EC50 value is on record for H2L1 Fab His, H2 heavy chain truncated at position 224 with a C-terminal 6x histidine tag including histidine at position 224 (Fab, V domains shown, Recombinant Fab from CHOK1 culture supernatant) VH: EVQLVESGGGLVQPGGSLRLSCAVSGFTFSDNGMAWVRQAPGKGLEWVSFISNLAYSIDYADTVTGRFTISRDNAKNSLYLQMNSLRAEDTAVYYCVSGTWFAYWGQGTLVTVSS VL: DIVMTQSPLSLPVTPGEPASISCRVSQSLLHSNGYTYLHWYLQKPGQSPQLLIYKVSNRFSGVPDRFSGSGSGTDFTLKISRVEAEDVGVYYCSQTRHVPYTFGGGTKVEIKR ?
Resp: 0.227

These measurements were taken from patent US20110064740A1.
